Tested on: Strep. pneumoniae
Experiment: antimicrobial activity, MIC by agar dilution method, Strep. pneumoniae
Format: cell-based
Conditions: Streptococcus pneumoniae, 3 test strains, MIC refers to over 90% of tested strains, read-out: Minimal Inhibitory Concentration
measurementLabel: MIC90 (µg/mL)

compound	endpointUnit	observed
CCC1OC(=O)CC(O)C(C)C(OC2OC(C)C(OC3CC(C)(O)C(O)C(C)O3)C(N(C)C)C2O)C(CC=O)CC(C)C(=O)CCC(C)CC1COC1OC(C)C(O)C(OC)C1OC (centres unmarked) [II, 10,11,12,13-tetrahydro tylosin]	µg/mL	0.5
CCC1OC(=O)CC(O)C(C)C(OC2OC(C)C(OC3CC(C)(O)C(O)C(C)O3)C(N(C)C)C2O)C(CC=O)CC(C)C(O)CCC(C)CC1COC1OC(C)C(O)C(OC)C1OC (centres unmarked) [VI]	µg/mL	0.5
CCC1OC(=O)CC(O)C(C)C(OC2OC(C)C(OC3CC(C)(O)C(O)C(C)O3)C(N(C)C)C2O)C(CC=NO)CC(C)C(=O)CCC(C)CC1COC1OC(C)C(O)C(OC)C1OC (centres unmarked) [XIX, 10,11,12,13-tetrahydro tylosin aldoxime]	µg/mL	1
